Provenance of the data: patent US20210130436A1

Documented Ratio of PDL1:CD28 across a set of binders
Measured on: T1, human PD-L1 (human, UniProt Q9NZQ7 19-290)
T1 construct: whole, on cells; CHO cells stably expressing huPD-L1; also called huPD-L1
Method summary: flow cytometry, MFI on CHO/huPD-L1 cells divided by MFI on Jurkat cells (CD28), 33.3 nM
The figure you give is taken to be in ratio; do not add the unit.

Binder: variant CD80 IgV-Fc (inert) H18Y/E35D/M47V/V68M/A71G (Fc fusion, Fc fusions are dimeric by the general description; not shown: inert human IgG1 Fc) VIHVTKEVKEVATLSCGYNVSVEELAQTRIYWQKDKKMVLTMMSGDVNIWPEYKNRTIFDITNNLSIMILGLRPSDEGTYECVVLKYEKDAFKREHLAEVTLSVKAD
Quantity kind: Ratio of PDL1:CD28
Readout units: ratio
Test result: 20.1

Next binder, please.
# input What Ratio of PDL1:CD28 value was documented for this binder, variant CD80 IgV-Fc (inert) H18V/A26Q/E35D/M47V/V68L/A71G/D90G (Fc fusion, not shown: inert human IgG1 Fc) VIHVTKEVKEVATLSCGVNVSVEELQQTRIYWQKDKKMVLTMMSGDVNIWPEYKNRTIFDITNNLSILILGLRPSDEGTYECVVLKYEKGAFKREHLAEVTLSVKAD ?
# output 10.7
